assayComment: Solubility of cannabidiol in solvents, oils and buffers at 25° C.
Type: physicochemical
measurementConditions: organic solvent or mixture; Cumene, 25° C.
experimentalEndpoint: solubility

input: Need solubility, item C=C(C)[C@@H]1CCC(C)=C[C@H]1c1c(O)cc(CCCCC)cc1O [Cannabidiol]
output: > 100 mg/mL

----------
assayComment: Solubility of cannabidiol in solvents, oils and buffers at 25° C.
Type: physicochemical
measurementConditions: organic solvent or mixture; n-hexane, 25° C.
experimentalEndpoint: solubility

input: Need solubility, item C=C(C)[C@@H]1CCC(C)=C[C@H]1c1c(O)cc(CCCCC)cc1O
output: > 100 mg/mL

----------
assayComment: Solubility of cannabidiol in solvents, oils and buffers at 25° C.
Format: physicochemical
measurementConditions: organic solvent or mixture; all other solvents examined with the exception of heptane, n-decane and isooctane
experimentalEndpoint: solubility

input: Need solubility, item C=C(C)[C@@H]1CCC(C)=C[C@H]1c1c(O)cc(CCCCC)cc1O [Cannabidiol]
output: > 100 mg/mL

----------
assayComment: Solubility of cannabidiol in solvents, oils and buffers at 25° C.
Assay type: physicochemical
measurementConditions: oil or lipid; Sesame Oil, 25° C.
experimentalEndpoint: solubility (mg/mL)
Answers are plain numbers, in mg/mL.

input: Need solubility, item C=C(C)[C@@H]1CCC(C)=C[C@H]1c1c(O)cc(CCCCC)cc1O [Cannabidiol]
output: 216

----------
assayComment: Solubility of cannabidiol in solvents, oils and buffers at 25° C.
Assay type: physicochemical
measurementConditions: organic solvent or mixture; Ethyl Acetate (EtOAc), 25° C.
experimentalEndpoint: solubility

input: Need solubility, item C=C(C)[C@@H]1CCC(C)=C[C@H]1c1c(O)cc(CCCCC)cc1O
output: > 100 mg/mL

----------
assayComment: Solubility of cannabidiol in solvents, oils and buffers at 25° C.
Format: physicochemical
measurementConditions: Britton Robinson Buffer, aqueous buffer; BRB pH 8, 25° C.
experimentalEndpoint: solubility (µg/mL)
Answers are plain numbers, in µg/mL.

input: Need solubility, item C=C(C)[C@@H]1CCC(C)=C[C@H]1c1c(O)cc(CCCCC)cc1O [Cannabidiol]
output: 0.12

----------
assayComment: Solubility of cannabidiol in solvents, oils and buffers at 25° C.
Format: physicochemical
measurementConditions: organic solvent or mixture; Toluene, 25° C.
experimentalEndpoint: solubility

input: Need solubility, item C=C(C)[C@@H]1CCC(C)=C[C@H]1c1c(O)cc(CCCCC)cc1O
output: > 100 mg/mL

----------
assayComment: Solubility of cannabidiol in solvents, oils and buffers at 25° C.
Assay type: physicochemical
measurementConditions: organic solvent or mixture; 1,4-dioxane, 25° C.
experimentalEndpoint: solubility

input: Need solubility, item C=C(C)[C@@H]1CCC(C)=C[C@H]1c1c(O)cc(CCCCC)cc1O
output: > 100 mg/mL

----------
assayComment: Solubility of cannabidiol in solvents, oils and buffers at 25° C.
Assay type: physicochemical
measurementConditions: organic solvent or mixture; Chloroform, 25° C.
experimentalEndpoint: solubility

input: Need solubility, item C=C(C)[C@@H]1CCC(C)=C[C@H]1c1c(O)cc(CCCCC)cc1O
output: > 100 mg/mL

----------
assayComment: Solubility of cannabidiol in solvents, oils and buffers at 25° C.
Format: physicochemical
measurementConditions: aqueous buffer; Britton Robinson Buffers
experimentalEndpoint: solubility

input: Need solubility, item C=C(C)[C@@H]1CCC(C)=C[C@H]1c1c(O)cc(CCCCC)cc1O
output: < 100 µg/mL
